assay: Stability experiments under 25° C.±2° C. and 65% R.H±5% R.H; settings: month 9; 25° C./65% R.H

| MOLECULE | Description |
| --- | --- |
| CC[C@@H]([C@H](C)OP(=O)(O)O)n1ncn(-c2ccc(N3CCN(c4ccc(OC[C@@H]5CO[C@@](Cn6cncn6)(c6ccc(F)cc6F)C5)cc4)CC3)cc2)c1=O [Example 1, Posaconazole Phosphate Monocholinate] | White |
| CC[C@@H]([C@H](C)OP(=O)(O)O)n1ncn(-c2ccc(N3CCN(c4ccc(OC[C@@H]5CO[C@@](Cn6cncn6)(c6ccc(F)cc6F)C5)cc4)CC3)cc2)c1=O.N=C(N)NCCC[C@H](N)C(=O)O [Comparative Example 5, Posaconazole Phosphate Monoarginine Salt] | White |
| CC[C@@H]([C@H](C)OP(=O)([O-])[O-])n1ncn(-c2ccc(N3CCN(c4ccc(OC[C@@H]5CO[C@@](Cn6cncn6)(c6ccc(F)cc6F)C5)cc4)CC3)cc2)c1=O.C[N+](C)(C)CCO.C[N+](C)(C)CCO [Comparative Example 1, Posaconazole Phosphate Bicholinate] | White |
| CCC(C(C)OP(=O)([O-])[O-])n1ncn(-c2ccc(N3CCN(c4ccc(OCC5COC(Cn6cncn6)(c6ccc(F)cc6F)C5)cc4)CC3)cc2)c1=O.C[N+](C)(C)CCO.C[N+](C)(C)CCO.O.O.O.O.O (centres unmarked) | White |
| CC[C@@H]([C@H](C)OP(=O)(O)O)n1ncn(-c2ccc(N3CCN(c4ccc(OC[C@@H]5CO[C@@](Cn6cncn6)(c6ccc(F)cc6F)C5)cc4)CC3)cc2)c1=O [Example 3] | White |

====

assay: Stability experiments under 25° C.±2° C. and 65% R.H±5% R.H; details: month 12; 25° C./65% R.H

| COMPOUND | Content |
| --- | --- |
| CC[C@@H]([C@H](C)OP(=O)([O-])[O-])n1ncn(-c2ccc(N3CCN(c4ccc(OC[C@@H]5CO[C@@](Cn6cncn6)(c6ccc(F)cc6F)C5)cc4)CC3)cc2)c1=O.C[N+](C)(C)CCO.C[N+](C)(C)CCO [Comparative Example 1, Posaconazole Phosphate Bicholinate] | 99.61% |
| CC[C@@H]([C@H](C)OP(=O)(O)O)n1ncn(-c2ccc(N3CCN(c4ccc(OC[C@@H]5CO[C@@](Cn6cncn6)(c6ccc(F)cc6F)C5)cc4)CC3)cc2)c1=O.N=C(N)NCCC[C@H](N)C(=O)O [Comparative Example 5, Posaconazole Phosphate Monoarginine Salt] | 99.49% |
| CC[C@@H]([C@H](C)OP(=O)(O)O)n1ncn(-c2ccc(N3CCN(c4ccc(OC[C@@H]5CO[C@@](Cn6cncn6)(c6ccc(F)cc6F)C5)cc4)CC3)cc2)c1=O [Example 3] | 99.84% |
| CC[C@@H]([C@H](C)OP(=O)([O-])[O-])n1ncn(-c2ccc(N3CCN(c4ccc(OC[C@@H]5CO[C@@](Cn6cncn6)(c6ccc(F)cc6F)C5)cc4)CC3)cc2)c1=O.O.O.O.O.O.[Na+].[Na+] | 99.41% |

====

assay: Stability experiments under 25° C.±2° C. and 65% R.H±5% R.H; settings: month 6; 25° C./65% R.H
Known Content of a selection of molecules

| MOLECULE | Content (%) |
| --- | --- |
| CC[C@@H]([C@H](C)OP(=O)(O)O)n1ncn(-c2ccc(N3CCN(c4ccc(OC[C@@H]5CO[C@@](Cn6cncn6)(c6ccc(F)cc6F)C5)cc4)CC3)cc2)c1=O.CNC[C@H](O)[C@@H](O)[C@H](O)[C@H](O)CO | 99.69 |
| CC[C@@H]([C@H](C)OP(=O)(O)O)n1ncn(-c2ccc(N3CCN(c4ccc(OC[C@@H]5CO[C@@](Cn6cncn6)(c6ccc(F)cc6F)C5)cc4)CC3)cc2)c1=O.N=C(N)NCCC[C@H](N)C(=O)O [Comparative Example 5, Posaconazole Phosphate Monoarginine Salt] | 99.71 |
| CCC(C(C)OP(=O)([O-])[O-])n1ncn(-c2ccc(N3CCN(c4ccc(OCC5COC(Cn6cncn6)(c6ccc(F)cc6F)C5)cc4)CC3)cc2)c1=O.C[N+](C)(C)CCO.C[N+](C)(C)CCO.O.O.O.O.O (stereo not drawn) | 99.81 |
